# Test system: HEK-293T
# assay_info: Multiplex assay against HEK293T
# Format: toxicity, cell-based
# experimental_setup: human, 48 h, 1 µM, compound concentration 1 uM, replicate 1
reported_endpoint: Population Mitotic Cells (%)
Answer in %, number only, no unit symbol.

O=C(NCCNCC(O)COc1ccc(O)cc1)N1CCOCC1.O=C(NCCNCC(O)COc1ccc(O)cc1)N1CCOCC1.O=C(O)/C=C/C(=O)O (stereo not drawn) [XAMOTEROL FUMARATE]: 78
Cc1cc(=O)n(C)c2cc(N3C(=O)CC[C@H](NS(=O)(=O)CC(C)C)[C@H]3c3ccc(Cl)cc3)ccc12: 74
COCCn1c(C)c(C)s/c1=N\C(=O)C1C(C)(C)C1(C)C: 79
COCCCN1CCC(NC(=O)c2cc(Cl)c(N)c3c2OCC3)CC1 [PRUCALOPRIDE]: 75
COc1cc(Nc2ncc3c(n2)-c2ccc(Cl)cc2C(c2c(F)cccc2OC)=NC3)ccc1C(=O)O [ALISERTIB]: 68

The value of Population Mitotic Cells (%) measured for the molecule CN(C)C(=O)Cn1cc(-c2ccc(-c3nnc4ccccn34)cc2)cn1 turned out to be 81

The value of Population Mitotic Cells (%) measured for the molecule Cc1ccc(OCC(O)C(C)NC(C)C)c2c1CCC2.Cl (stereo not drawn) turned out to be 75

The value of Population Mitotic Cells (%) measured for the molecule CN1CCC(C(=O)c2cccc(NC(=O)c3c(F)cc(F)cc3F)n2)CC1 turned out to be 77
